For each of the compounds below, state its IC50.
MEASURED TARGET: human sodium ion channel 1.7 (hNav1.7) (Homo sapiens, UniProt Q15858)
Sequence (Q15858 whole entry): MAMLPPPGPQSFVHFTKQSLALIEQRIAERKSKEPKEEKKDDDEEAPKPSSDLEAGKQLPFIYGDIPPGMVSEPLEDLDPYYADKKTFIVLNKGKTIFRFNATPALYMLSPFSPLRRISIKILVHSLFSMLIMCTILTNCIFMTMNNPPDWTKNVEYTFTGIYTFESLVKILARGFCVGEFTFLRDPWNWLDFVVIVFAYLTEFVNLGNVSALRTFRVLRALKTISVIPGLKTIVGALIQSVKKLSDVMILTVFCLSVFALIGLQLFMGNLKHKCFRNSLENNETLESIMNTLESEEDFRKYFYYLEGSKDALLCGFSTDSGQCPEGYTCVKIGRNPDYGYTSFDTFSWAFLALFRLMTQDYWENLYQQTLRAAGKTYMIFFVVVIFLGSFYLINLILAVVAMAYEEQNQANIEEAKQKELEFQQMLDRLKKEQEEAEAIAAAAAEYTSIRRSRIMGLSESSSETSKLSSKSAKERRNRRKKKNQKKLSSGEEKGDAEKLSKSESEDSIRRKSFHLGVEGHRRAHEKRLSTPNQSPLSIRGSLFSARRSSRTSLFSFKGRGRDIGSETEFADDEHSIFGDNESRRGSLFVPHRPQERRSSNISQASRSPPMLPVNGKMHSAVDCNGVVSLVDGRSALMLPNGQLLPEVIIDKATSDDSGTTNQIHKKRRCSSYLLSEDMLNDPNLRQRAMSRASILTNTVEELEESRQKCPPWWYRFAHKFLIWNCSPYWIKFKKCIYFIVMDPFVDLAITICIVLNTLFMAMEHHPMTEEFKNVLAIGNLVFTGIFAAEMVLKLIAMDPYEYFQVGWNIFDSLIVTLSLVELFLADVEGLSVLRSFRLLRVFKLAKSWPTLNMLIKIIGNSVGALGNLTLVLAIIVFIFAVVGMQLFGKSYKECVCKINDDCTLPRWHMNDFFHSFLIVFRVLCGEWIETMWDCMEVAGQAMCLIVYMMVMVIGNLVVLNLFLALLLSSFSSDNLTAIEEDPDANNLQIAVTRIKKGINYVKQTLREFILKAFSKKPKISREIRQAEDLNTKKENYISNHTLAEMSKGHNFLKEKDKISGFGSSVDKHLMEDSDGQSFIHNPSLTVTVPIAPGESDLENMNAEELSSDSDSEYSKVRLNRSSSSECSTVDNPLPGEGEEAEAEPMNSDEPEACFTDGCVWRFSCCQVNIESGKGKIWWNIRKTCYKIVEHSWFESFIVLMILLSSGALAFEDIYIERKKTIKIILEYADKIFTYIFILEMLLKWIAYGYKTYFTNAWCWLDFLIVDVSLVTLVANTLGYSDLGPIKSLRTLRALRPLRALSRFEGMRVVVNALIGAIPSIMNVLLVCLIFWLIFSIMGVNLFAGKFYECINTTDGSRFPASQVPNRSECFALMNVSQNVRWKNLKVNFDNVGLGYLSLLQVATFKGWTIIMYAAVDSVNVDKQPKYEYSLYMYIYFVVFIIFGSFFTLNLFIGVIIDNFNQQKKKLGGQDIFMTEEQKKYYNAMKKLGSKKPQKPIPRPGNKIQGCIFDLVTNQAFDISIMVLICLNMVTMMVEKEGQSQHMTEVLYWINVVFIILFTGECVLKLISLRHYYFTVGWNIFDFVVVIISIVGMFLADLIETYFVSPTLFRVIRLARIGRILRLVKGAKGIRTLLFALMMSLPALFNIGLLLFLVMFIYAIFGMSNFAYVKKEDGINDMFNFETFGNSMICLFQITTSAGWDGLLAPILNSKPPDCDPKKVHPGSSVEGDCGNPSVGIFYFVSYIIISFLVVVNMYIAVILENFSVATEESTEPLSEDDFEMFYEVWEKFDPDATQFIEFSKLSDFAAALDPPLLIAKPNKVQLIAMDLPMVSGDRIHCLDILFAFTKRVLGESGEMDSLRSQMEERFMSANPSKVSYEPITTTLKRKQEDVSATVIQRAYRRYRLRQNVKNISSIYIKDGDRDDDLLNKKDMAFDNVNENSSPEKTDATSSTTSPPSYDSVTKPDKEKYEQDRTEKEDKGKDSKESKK
MEASUREMENT NOTES: Blocking effect against sodium ion channel Nav1.7, IonFlux16 auto patch clamp in hNav1.7 HEK293 cells
Type: cell-based
CONDITION: hNav1.7 HEK293 cells; inhibition of peak current after 50 seconds treatment; eight concentrations; read-out: IC50

Give the measured IC50 of CS(=O)(=O)N(Cc1ccc(F)cc1)C(=O)c1cc(Cl)c(-n2nc(Cl)c3cc(O)ccc32)cc1F [Example 141] .
> 10 µM

Give the measured IC50 of CS(=O)(=O)NC(=O)c1ccc(-n2nc(Cl)c3cc(O)ccc32)cc1 [Example 12] .
> 10 µM

Give the measured IC50 of CC(=O)Nc1nn(-c2cc(F)c(C(=O)NS(C)(=O)=O)cc2Cl)c2ccc(Cl)cc12 [Example 6] .
> 10 µM

Give the measured IC50 of CS(=O)(=O)NC(=O)c1cc(Cl)c(-n2cc(Cl)c3c(Cl)c(O)ccc32)cc1F [Example 267] .
> 10 µM

Give the measured IC50 of CS(=O)(=O)NC(=O)c1ccc(-n2nc(-c3ccc(Cl)cc3)c3cc(Cl)ccc32)c(F)c1 [Example 126] .
0.99 µM

====

MEASURED TARGET: human sodium ion channel 1.7 (hNav1.7) (Homo sapiens, UniProt Q15858)
MEASUREMENT NOTES: Blocking effect against sodium ion channel Nav1.7, IonFlux16 auto patch clamp in hNav1.7 HEK293 cells
Type: cell-based
CONDITION: hNav1.7 HEK293 cells; inhibition of peak current after 50 seconds treatment; eight concentrations; read-out: IC50
IC50 class ranges: bottom: < 200 nM; middle: ≥ 200 nM and < 300 nM; top: ≥ 300 nM

Looking at `CS(=O)(=O)NC(=O)c1cc(Cl)c(-n2nc(N3CCOCC3)c3cc(Cl)ccc32)cc1F` , which class would you pick?
top

Looking at `CS(=O)(=O)NC(=O)c1cc(Cl)c(-n2nc(Cl)c3cc(Cl)ccc32)cc1F` , which class would you pick?
bottom

Looking at `CS(=O)(=O)NC(=O)c1cc(F)c(-n2nc(-c3cccc(C(F)(F)F)c3)c3cc(Cl)ccc32)cc1Cl` , which class would you pick?
middle

Looking at `Cn1cc(-c2nn(-c3cc(F)c(C(=O)NS(C)(=O)=O)cc3Cl)c3ccc(Cl)cc23)cn1` , which class would you pick?
top

Looking at `CS(=O)(=O)NC(=O)c1cc(Cl)c(-n2nc(-c3cc(F)ccc3F)c3cc(F)ccc32)cc1F` , which class would you pick?
middle

Looking at `CS(=O)(=O)NC(=O)c1ccc(-n2nc(-c3ccc(C(F)(F)F)cc3)c3cc(Cl)ccc32)c(F)c1` , which class would you pick?
top

Looking at `CS(=O)(=O)NC(=O)c1cc(Cl)c(-n2cc(-c3ccccc3Cl)c3cc(F)cnc32)cc1F` , which class would you pick?
bottom

Looking at `COc1ccccc1-c1nn(-c2ccc(C(=O)NS(C)(=O)=O)cc2F)c2ccc(Cl)cc12` , which class would you pick?
top

Looking at `CS(=O)(=O)NC(=O)c1cc(Cl)c(-n2nc(Cl)c3cc(-c4ccccc4)ccc32)cc1F` , which class would you pick?
bottom

Looking at `CS(=O)(=O)NC(=O)c1cc(Cl)c(-n2nc(Cl)c3c(Cl)c(OCc4ccc(F)cc4)ccc32)cc1F` , which class would you pick?
top

Looking at `CS(=O)(=O)NC(=O)c1cc(Cl)c(-n2nc(-c3cccc(C(F)(F)F)c3)c3cc(F)ccc32)cc1F` , which class would you pick?
bottom

Looking at `Cn1nccc1-c1ccc2c(cnn2-c2cc(F)c(S(=O)(=O)Nc3cscn3)cc2Cl)c1` , which class would you pick?
top

Looking at `COc1ccc(-c2nn(-c3ccc(C(=O)NS(C)(=O)=O)cc3F)c3ccc(Cl)cc23)cc1` , which class would you pick?
top

====

MEASURED TARGET: human sodium ion channel 1.7 (hNav1.7) (Homo sapiens, UniProt Q15858)
MEASUREMENT NOTES: Blocking effect against sodium ion channel Nav1.7, IonFlux16 auto patch clamp in hNav1.7 HEK293 cells
Assay type: cell-based
CONDITION: hNav1.7 HEK293 cells; inhibition of peak current after 50 seconds treatment; eight concentrations; read-out: IC50
For each of the compounds below, state its IC50.

Any idea what IC50 came out for `Cn1nccc1-c1nn(-c2cc(F)c(C(=O)NS(C)(=O)=O)cc2Cl)c2ccc(Cl)cc12` on human sodium ion channel 1.7 (hNav1.7) (Homo sapiens, UniProt Q15858)?
> 3 µM

Any idea what IC50 came out for `O=S(=O)(Nc1cscn1)c1cc(F)c(-n2nc(Cl)c3cc(C(F)(F)F)ccc32)cc1F` on human sodium ion channel 1.7 (hNav1.7) (Homo sapiens, UniProt Q15858)?
> 10 µM

Any idea what IC50 came out for `Cn1nccc1-c1ccc2c(c1)c(Cl)nn2-c1cc(F)c(S(=O)(=O)Nc2cscn2)cc1Cl` on human sodium ion channel 1.7 (hNav1.7) (Homo sapiens, UniProt Q15858)?
3 to 10 µM
